Test system: K-562 leukemia
Test: NCI tumour cell line growth inhibition, 48 h
observed.property: TGI

Record request: TGI value, item CCN1CCN(C(=O)[C@@]2(C)CC[C@]3(C)CC[C@]4(C)C(=CC(=O)[C@@H]5[C@@]6(C)CC[C@H](OC7C[C@@H](O)[C@@H](O)C(C)O7)C(C)(C)[C@@H]6CC[C@]54C)[C@@H]3C2)CC1 (some centres undefined) 2.66 µM

For the molecule `O=C1Sc2cc3ccccc3cc2C(=O)Sc2ccc(Br)cc21` , what TGI is on record? 19.2 µM

Suppose we examine the molecule CC(C)C(CCl)NC(=O)c1cccc(C(=O)N[C@H](CCl)C(C)C)n1 (stereo in doubt) ; what TGI value has been reported? > 100 µM

Value lookup for TGI; key = `CCN(CC)CCNc1ccc2nnn3c4ccc(OCCN(CC)CC)cc4c(=O)c1c23` > 100 µM

// TGI lookup, key: `CCCNC(=O)NNC(=O)c1c[nH]c2nc(C)ccc2c1=O` > 100 µM

Sample `C=CCc1cccc2cc(C(=O)NCc3ccccc3)c(=N)oc12` — what was its TGI? > 100 µM

Recorded TGI for `O=C1Nc2cccc(Cl)c2/C1=C\c1c(Cl)nc2n1CCS2` , please? > 100 µM

Any idea what TGI was measured for `O=C(Nc1ccc2ncccc2c1)Nc1ccc2ncccc2c1` ? > 100 µM

Quick one: TGI of COc1cc(C2c3cc4c(cc3OC(N3CCCCC3)C2C)OCO4)cc(OC)c1O (centres undefined) ? > 100 µM
